System: Cem/TK^−
experimentNotes: Cytostatic assay, thymidine kinase-deficient CEM/TK^− cells
Assay type: cell-based, human
testConditions: Table 6; read-out: IC50 Cem/TK^−
recordedMetric: IC50 (µM)

molecule | recordedMetric | boundType | recordedMeasurement
C[C@H](NP(=O)(OC[C@H]1O[C@@H](n2cc(F)c(=O)[nH]c2=O)C[C@@H]1O)Oc1ccccc1)C(=O)OC1CCCCC1 (stereo partly shown) [CPF 508] | IC50 | = | 1.2
CCC(C)C(NP(=O)(OCC1OC(n2cc(F)c(=O)[nH]c2=O)CC1O)Oc1ccccc1)C(=O)OCc1ccccc1 (mixture of isomers) [Ph Bn Ile] | IC50 | = | 30
CC(C)CC(NP(=O)(OCC1OC(n2cc(F)c(=O)[nH]c2=O)CC1O)Oc1ccccc1)C(=O)OCc1ccccc1 (stereo not shown) [Ph Bn Leu] | IC50 | = | 16
CC(C)(NP(=O)(OCC1OC(n2cc(F)c(=O)[nH]c2=O)CC1O)Oc1cccc2ccccc12)C(=O)OCc1ccccc1 (stereo not shown) [CPF 395] | IC50 | = | 2.4
O=C(OCc1ccccc1)C(Cc1ccccc1)NP(=O)(OCC1OC(n2cc(F)c(=O)[nH]c2=O)CC1O)Oc1ccccc1 (stereo not shown) [Ph Bn Phe] | IC50 | = | 11
CSCCC(NP(=O)(OCC1OC(n2cc(F)c(=O)[nH]c2=O)CC1O)Oc1cccc2ccccc12)C(=O)OCc1ccccc1 (stereo not shown) [Nap Bn Met] | IC50 | = | 11
CCCCCOC(=O)C(CCSC)NP(=O)(OCC1OC(n2cc(F)c(=O)[nH]c2=O)CC1O)Oc1ccccc1 (stereo not shown) [Ph Pnt Met] | IC50 | = | 13
CC(C)C(NP(=O)(OCC1OC(n2cc(F)c(=O)[nH]c2=O)CC1O)Oc1cccc2ccccc12)C(=O)OC1CCCCC1 (stereo not shown) [CPF 576] | IC50 | = | 46
CCCCCOC(=O)C(NP(=O)(OCC1OC(n2cc(F)c(=O)[nH]c2=O)CC1O)Oc1cccc2ccccc12)C(C)CC (mixture of isomers) [Nap Pnt Ile] | IC50 | = | 17
CCOC(=O)C(NP(=O)(OCC1OC(n2cc(F)c(=O)[nH]c2=O)CC1O)Oc1ccccc1)C(C)C (stereo not shown) [Ph Et Val] | IC50 | > | 250
CCCCCOC(=O)C(C)(C)NP(=O)(OCC1OC(n2cc(F)c(=O)[nH]c2=O)CC1O)Oc1cccc2ccccc12 (stereo not shown) [Nap Pnt DMG] | IC50 | = | 5.4
CCCCCOC(=O)C(Cc1ccccc1)NP(=O)(OCC1OC(n2cc(F)c(=O)[nH]c2=O)CC1O)Oc1cccc2ccccc12 (mixture of isomers) [Nap Pnt Phe] | IC50 | = | 8.3
CCCOC(=O)C(C)NP(=O)(OCC1OC(n2cc(F)c(=O)[nH]c2=O)CC1O)Oc1cccc2ccccc12 (stereo not shown) [Nap Pr Ala] | IC50 | = | 1.1

====

Test system: L1210/TK^−
experimentNotes: Cytostatic assay, thymidine kinase-deficient L1210/TK^− cells
Format: cell-based, murine
testConditions: Mus musculus, L1210; Table 6; read-out: IC50 L1210/TK^−
pIC50: −log10 of the molar value.

compound | pIC50
O=c1[nH]cc(F)c(=O)[nH]1 [5-FU, 5-Fluorouracil, reference compound] | 6.49
C[C@H](NP(=O)(OC[C@H]1O[C@@H](n2cc(F)c(=O)[nH]c2=O)CC1O)Oc1cccc2ccccc12)C(=O)OC1CCCCC1 (stereo partly shown) | 6.82
C[C@H](NP(=O)(OC[C@H]1O[C@@H](n2cc(F)c(=O)[nH]c2=O)CC1O)Oc1cccc2ccccc12)C(=O)OC1Cc2ccccc2C1 (stereo partly shown) | 4.40
CCCCCOC(=O)[C@H](C)NP(=O)(OC[C@H]1O[C@@H](n2cc(F)c(=O)[nH]c2=O)CC1O)Oc1cccc2ccccc12 (stereo partly shown) | 6.89
O=c1[nH]c(=O)n([C@H]2C[C@H](O)[C@@H](CO)O2)cc1F [5-FdUrd, 5-fluoro-2′-deoxyuridine, reference compound] | 5.52
O=C(OCc1ccccc1)[C@H](Cc1ccccc1)NP(=O)(OC[C@H]1O[C@@H](n2cc(F)c(=O)[nH]c2=O)CC1O)Oc1cccc2ccccc12 (stereo partly shown) | 5.25
COC(=O)[C@H](C)NP(=O)(OC[C@H]1O[C@@H](n2cc(F)c(=O)[nH]c2=O)CC1O)Oc1ccccc1 (stereo partly shown) [CPF 382, reference compound] | 4.39
CCOC(=O)[C@H](C)NP(=O)(OC[C@H]1O[C@@H](n2cc(F)c(=O)[nH]c2=O)CC1O)Oc1ccccc1 (stereo partly shown) | 6.03
CSCC[C@H](NP(=O)(OC[C@H]1O[C@@H](n2cc(F)c(=O)[nH]c2=O)CC1O)Oc1ccccc1)C(=O)OCc1ccccc1 (stereo partly shown) | 5.39
CCOC(=O)C(C)(C)NP(=O)(OC[C@H]1O[C@@H](n2cc(F)c(=O)[nH]c2=O)CC1O)Oc1ccccc1 (stereo partly shown) | 5.34
C[C@H](NP(=O)(OC[C@H]1O[C@@H](n2cc(F)c(=O)[nH]c2=O)CC1O)Oc1cccc2ccccc12)C(=O)OCCC(C)(C)C (stereo partly shown) | 7.21
C[C@H](NP(=O)(OC[C@H]1O[C@@H](n2cc(F)c(=O)[nH]c2=O)CC1O)Oc1cccc2ccccc12)C(=O)OC1CCC1 (stereo partly shown) | 7.06
CC(C)OC(=O)[C@H](C)NP(=O)(OC[C@H]1O[C@@H](n2cc(F)c(=O)[nH]c2=O)CC1O)Oc1ccccc1 (stereo partly shown) | 5.96
C[C@H](NP(=O)(OC[C@H]1O[C@@H](n2cc(F)c(=O)[nH]c2=O)CC1O)Oc1cccc2ccccc12)C(=O)OCc1ccccc1 (stereo partly shown) | 7.35
CCCCOC(=O)[C@H](C)NP(=O)(OC[C@H]1O[C@@H](n2cc(F)c(=O)[nH]c2=O)CC1O)Oc1cccc2ccccc12 (stereo partly shown) | 6.96
C[C@H](NP(=O)(OC[C@H]1O[C@@H](n2cc(F)c(=O)[nH]c2=O)CC1O)Oc1cccc2ccccc12)C(=O)OC1CCOCC1 (stereo partly shown) | 4.57
CC(C)(NP(=O)(OC[C@H]1O[C@@H](n2cc(F)c(=O)[nH]c2=O)CC1O)Oc1ccccc1)C(=O)OCc1ccccc1 (stereo partly shown) | 6.74
C[C@H](NP(=O)(OC[C@H]1O[C@@H](n2cc(F)c(=O)[nH]c2=O)CC1O)Oc1cccc2ccccc12)C(=O)OCC(C)(C)C (stereo partly shown) | 5.92
CCOC(=O)C(C)(C)NP(=O)(OC[C@H]1O[C@@H](n2cc(F)c(=O)[nH]c2=O)CC1O)Oc1cccc2ccccc12 (stereo partly shown) | 6.09
CCOC(=O)[C@H](C)NP(=O)(OC[C@H]1O[C@@H](n2cc(F)c(=O)[nH]c2=O)CC1O)Oc1cccc2ccccc12 (stereo partly shown) | 6.44
C[C@H](NP(=O)(OC[C@H]1O[C@@H](n2cc(F)c(=O)[nH]c2=O)CC1O)Oc1cccc2ccccc12)C(=O)OC1CCCC1 (stereo partly shown) | 6.89
C[C@H](NP(=O)(OC[C@H]1O[C@@H](n2cc(F)c(=O)[nH]c2=O)CC1O)Oc1cccc2ccccc12)C(=O)OCC1CC1 (stereo partly shown) | 6.92
